Assignment: determine reported pKi for the given molecules.
Molecular target: 5-hydroxytryptamine receptor 2B (Homo sapiens, UniProt P41595)
Sequence (P41595 whole entry): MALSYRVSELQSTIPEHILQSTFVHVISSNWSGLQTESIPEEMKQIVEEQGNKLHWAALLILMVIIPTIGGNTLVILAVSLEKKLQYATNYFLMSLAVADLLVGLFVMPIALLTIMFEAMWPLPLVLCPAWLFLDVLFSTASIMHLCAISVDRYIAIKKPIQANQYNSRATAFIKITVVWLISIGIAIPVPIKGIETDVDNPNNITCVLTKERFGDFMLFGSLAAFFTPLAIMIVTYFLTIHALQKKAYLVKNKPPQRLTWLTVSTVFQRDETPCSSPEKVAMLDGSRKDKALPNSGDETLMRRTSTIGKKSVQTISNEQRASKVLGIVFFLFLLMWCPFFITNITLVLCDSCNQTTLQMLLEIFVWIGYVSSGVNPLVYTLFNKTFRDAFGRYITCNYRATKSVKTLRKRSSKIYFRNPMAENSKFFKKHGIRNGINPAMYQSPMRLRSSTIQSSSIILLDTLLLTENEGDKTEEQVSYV
Experiment: Compound was evaluated for binding affinity against human cloned 5-HT2B receptor in HEK 293 cells using [3H]5-HT as the radioligand
Please note pKi is a logarithmic value: minus log10 of concentration in mol/L. Answer with that number alone.

In: Entry under review: `COc1ccc(S(=O)(=O)Nc2cc(Cl)cc(Cl)c2Cl)cc1N1CCNCC1` . Reported pKi?
Out: 5.70

In: Entry under review: `COc1ccc(S(=O)(=O)N2CCc3ccc(I)cc32)cc1N1CCNCC1` . Reported pKi?
Out: 6.20

###

Molecular target: 5-hydroxytryptamine receptor 7 (Homo sapiens, UniProt P34969)
Sequence (P34969 whole entry): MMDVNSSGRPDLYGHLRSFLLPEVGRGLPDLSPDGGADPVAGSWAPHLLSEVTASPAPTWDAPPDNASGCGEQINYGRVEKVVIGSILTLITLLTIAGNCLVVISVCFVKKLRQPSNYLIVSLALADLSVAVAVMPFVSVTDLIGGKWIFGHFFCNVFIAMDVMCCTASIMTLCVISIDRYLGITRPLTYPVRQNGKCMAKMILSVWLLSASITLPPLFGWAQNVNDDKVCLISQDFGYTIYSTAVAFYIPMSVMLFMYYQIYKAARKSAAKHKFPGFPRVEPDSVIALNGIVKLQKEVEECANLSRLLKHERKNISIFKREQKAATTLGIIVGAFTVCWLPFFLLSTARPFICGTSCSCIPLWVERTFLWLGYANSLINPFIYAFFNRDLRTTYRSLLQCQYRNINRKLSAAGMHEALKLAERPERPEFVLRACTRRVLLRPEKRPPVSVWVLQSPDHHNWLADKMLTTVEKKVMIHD
Experiment: Compound was evaluated for binding affinity against human cloned 5-hydroxytryptamine 7 receptor in HEK 293 cells using [3H]5-CT as the radioligand (n=3)
Type: cell-based, HEK293
Assignment: determine reported Ki for the given compounds.
Report only the number, with the unit nM understood.

In: Entry under review: `COc1ccc(S(=O)(=O)N2CCc3ccc(I)cc32)cc1N1CCNCC1` . Reported Ki?
Out: 0.316

In: Entry under review: `COc1ccc(S(=O)(=O)Nc2cc(Cl)cc(Cl)c2Cl)cc1N1CCNCC1` . Reported Ki?
Out: 2
